Assay: Binding affinity against delta opioid receptor from calf frontal cortex.
assayMetric: pIC50
Numbers only, as −log10 of the molar value.

Here are 3 molecules together with their reported answers.
COc1ccc2c3c1O[C@H]1C(=O)C=C[C@@]4(NC(=O)C=Cc5ccc([N+](=O)[O-])cc5)C(C2)N(CC2CC2)CCC314 (some centres not stated)
7.27
O=C(/C=C/c1ccc([N+](=O)[O-])cc1)N[C@@]12CCC(=O)[C@@H]3Oc4c(O)ccc5c4[C@@]31CCN(CC1CC1)[C@@H]2C5
7.68
COc1ccc2c3c1O[C@H]1C(=O)C=C[C@@]4(NC(=O)C=Cc5ccc([N+](=O)[O-])cc5)C(C2)N(C)CCC314 (some centres not stated)
7.34

Could you tell me pIC50 for each of these molecules? They are listed below.
1. O=C(C=Cc1ccc([N+](=O)[O-])cc1)N[C@@]12C=CC(=O)[C@@H]3Oc4c(O)ccc5c4C31CCN(CC1CC1)C2C5 (some centres not stated)
2. CN1CCC23c4c5ccc(O)c4O[C@@]2(C)C(=O)CC[C@@]3(NC(=O)/C=C/c2ccc([N+](=O)[O-])cc2)C1C5 (some centres not stated)
3. CN1CC[C@]23c4c5ccc(O)c4O[C@H]2C(=O)CC[C@@]3(NC(=O)/C=C/c2ccc([N+](=O)[O-])cc2)[C@H]1C5
4. C[C@@]12Oc3c(O)ccc4c3C13CCN(CC1CC1)C(C4)[C@]3(NC(=O)/C=C/c1ccc([N+](=O)[O-])cc1)CCC2=O (some centres not stated)

1. 6.97
2. 7.29
3. 8.46
4. 7.96

====

Assay: Binding affinity against kappa opioid receptor from calf frontal cortex.
Can you tell me IC50 for the items I'm about to list?
Give bare numbers, in nM.

# return IC50 for each item in the list
1. O=C(C=Cc1ccc([N+](=O)[O-])cc1)N[C@@]12C=CC(=O)[C@@H]3Oc4c(O)ccc5c4C31CCN(CC1CC1)C2C5 (some centres undefined)
2. COc1ccc2c3c1O[C@H]1C(=O)C=C[C@@]4(NC(=O)C=Cc5ccc([N+](=O)[O-])cc5)C(C2)N(CC2CC2)CCC314 (some centres undefined)
3. C[C@@]12Oc3c(O)ccc4c3C13CCN(CC1CC1)C(C4)[C@]3(NC(=O)/C=C/c1ccc([N+](=O)[O-])cc1)CCC2=O (some centres undefined)
4. O=C(/C=C/c1ccc([N+](=O)[O-])cc1)N[C@@]12CCC(=O)[C@@H]3Oc4c(O)ccc5c4[C@@]31CCN(CC1CC1)[C@@H]2C5

[11, 5, 126, 12]

====

Target: UniProtKB P79350
Sequence (P79350 whole entry): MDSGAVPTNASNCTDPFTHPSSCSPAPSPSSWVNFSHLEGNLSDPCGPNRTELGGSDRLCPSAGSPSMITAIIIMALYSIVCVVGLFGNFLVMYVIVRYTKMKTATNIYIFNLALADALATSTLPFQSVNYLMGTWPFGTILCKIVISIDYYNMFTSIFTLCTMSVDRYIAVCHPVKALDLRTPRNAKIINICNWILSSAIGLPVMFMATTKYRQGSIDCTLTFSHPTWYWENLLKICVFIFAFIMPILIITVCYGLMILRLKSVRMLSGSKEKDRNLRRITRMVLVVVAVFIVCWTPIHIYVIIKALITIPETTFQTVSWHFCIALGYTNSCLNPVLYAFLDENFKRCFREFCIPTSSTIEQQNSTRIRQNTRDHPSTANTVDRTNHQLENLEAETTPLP
assayMetric: IC50 (nM)
One number for each entry, in nM.

Per the record, COc1ccc2c3c1O[C@H]1C(=O)C=C[C@@]4(NC(=O)C=Cc5ccc([N+](=O)[O-])cc5)C(C2)N(CC2CC2)CCC314 (stereo partly specified) has IC50 of 1.5

Each recorded value in this set is attributed to BindingDB's records for doi:10.1021/jm00073a015.
